biological target: cereblon (CRBN) (Homo sapiens, UniProt Q96SW2); test: In vitro CRBN binding assay (AlphaScreen, competitive inhibition of the PROTAC assay); details: Table 1; AlphaScreen, PROTAC Optimization Kit for BET Bromodomain-Cereblon Binding; read-out: Alpha IC50
assay.endpoint: pIC50
// pIC50 is dimensionless: -log10 of concentration (M)

compound: O=C1CCC(c2ccc3c(c2)CN(CCc2ccccc2)C3=O)C(=O)N1 (centres unmarked) [AEV40049]
target.or.system: cereblon (CRBN) (Homo sapiens, UniProt Q96SW2)
pIC50: 5.69
//
compound: O=C1CCC(c2cccc(NS(=O)(=O)c3ccccc3F)c2)C(=O)N1 (centres unmarked) [AEV40045]
target.or.system: cereblon (CRBN) (Homo sapiens, UniProt Q96SW2)
pIC50: 6.52
//
compound: COc1ccccc1C(=O)Nc1cccc(S(=O)(=O)Nc2cccc(C3CCC(=O)NC3=O)c2)c1 (centres unmarked) [AEV40151]
target.or.system: cereblon (CRBN) (Homo sapiens, UniProt Q96SW2)
pIC50: 6.47
//
compound: O=C1CCC(c2cccc(NS(=O)(=O)c3cccc(NCc4cc5ccccc5[nH]4)c3)c2)C(=O)N1 (centres unmarked) [AEV40163]
target.or.system: cereblon (CRBN) (Homo sapiens, UniProt Q96SW2)
pIC50: 5.84
//
compound: O=C1CCC(c2cccc(NS(=O)(=O)c3ccccc3)c2)C(=O)N1 (centres unmarked) [AEV40025]
target.or.system: cereblon (CRBN) (Homo sapiens, UniProt Q96SW2)
pIC50: 5.73
//
compound: CCCCCCCc1ccc(C(=O)Nc2cccc(S(=O)(=O)Nc3cccc(C4CCC(=O)NC4=O)c3)c2)cc1 (centres unmarked) [AEV40204]
target.or.system: cereblon (CRBN) (Homo sapiens, UniProt Q96SW2)
pIC50: 6.36
//
compound: O=C1CCC(c2cccc(NS(=O)(=O)c3cccc(NC(=O)c4ccccc4Br)c3)c2)C(=O)N1 (centres unmarked) [AEV40155]
target.or.system: cereblon (CRBN) (Homo sapiens, UniProt Q96SW2)
pIC50: 6.02
//
compound: Cc1ccc([N+](=O)[O-])cc1S(=O)(=O)Nc1cccc(C2CCC(=O)NC2=O)c1 (centres unmarked) [AEV40060]
target.or.system: cereblon (CRBN) (Homo sapiens, UniProt Q96SW2)
pIC50: 5.82
//
compound: CC(C)(C)c1ccc(CNc2cccc(C3CCC(=O)NC3=O)c2)cc1 (centres unmarked) [AEV40098]
target.or.system: cereblon (CRBN) (Homo sapiens, UniProt Q96SW2)
pIC50: 5.55
//
compound: O=C1CCC(c2cccc(NS(=O)(=O)c3cccc(NCc4ccc5ocnc5c4)c3)c2)C(=O)N1 (centres unmarked) [AEV40172]
target.or.system: cereblon (CRBN) (Homo sapiens, UniProt Q96SW2)
pIC50: 6.68

Give the value of pIC50 reported for the following: O=C1CCC(c2ccc3oc(N4CCOCC4)nc3c2)C(=O)N1 (centres unmarked) [AEV40207]
5.34

Give the value of pIC50 reported for the following: O=C1CCC(c2cccc(NS(=O)(=O)c3cccc(NC(=O)c4ccc(Cl)cc4)c3)c2)C(=O)N1 (centres unmarked) [AEV40135]
5.92

Give the value of pIC50 reported for the following: O=C1CCC(c2cccc(NC(=O)c3c(Cl)cc(Cl)cc3Cl)c2)C(=O)N1 (centres unmarked) [AEV40138]
6.10

* * *

target: cereblon (CRBN) (Homo sapiens); assay: In vitro CRBN binding assay (AlphaScreen, competitive inhibition of the PROTAC assay); conditions: Table 1; AlphaScreen, PROTAC Optimization Kit for BET Bromodomain-Cereblon Binding; read-out: Alpha IC50
assay.endpoint: IC50 (nM)
Expressed in nM, but write only the number.

Examples with their reported IC50 follow.
compound: COc1ccc(CN2CCOc3ccc(C4CCC(=O)NC4=O)cc3C2=O)cc1 (stereo not drawn)
endpoint.value: 1130

compound: O=C1CCC(c2ccc3oc(N4CCCCC4)nc3c2)C(=O)N1 (stereo not drawn)
endpoint.value: 3540

compound: Cc1cn(C)nc1CNc1cccc(C2CCC(=O)NC2=O)c1 (stereo not drawn)
endpoint.value: 660

compound: O=C1CCC(c2cccc(NCc3ccc(Oc4ccccc4)cc3)c2)C(=O)N1 (stereo not drawn)
endpoint.value: 3130

compound: O=C1CCC(c2ccc3c(c2)OCCN(c2cccc(NC(=O)C4CCOCC4)c2)C3=O)C(=O)N1 (stereo not drawn)
endpoint.value: 2510

compound: O=C1CCC(c2ccc3c(c2)NC(=O)C3)C(=O)N1 (stereo not drawn)
endpoint.value: 2390

Give the value of IC50 reported for the following: Nc1ccccc1S(=O)(=O)Nc1cccc(C2CCC(=O)NC2=O)c1 (stereo not drawn)
270

Give the value of IC50 reported for the following: Cc1cccc(CNc2cccc(C3CCC(=O)NC3=O)c2)c1 (stereo not drawn)
1140

Give the value of IC50 reported for the following: COCCN1Cc2cc(C3CCC(=O)NC3=O)ccc2C1=O (stereo not drawn)
5400

* * *

target: UniProt Q96SW2; assay: In vitro CRBN binding assay (AlphaScreen, competitive inhibition of the PROTAC assay); conditions: Table 1; AlphaScreen, PROTAC Optimization Kit for BET Bromodomain-Cereblon Binding; read-out: Alpha IC50
assay.endpoint: pIC50
// pIC50 is dimensionless: -log10 of concentration (M)

Examples with their reported pIC50 follow.
molecule: O=C1CCC(c2cccc(NS(=O)(=O)c3cccc4ccccc34)c2)C(=O)N1 (centres unmarked)
pIC50: 6.10

molecule: O=C1CCC(c2cccc(NC(=O)c3cccc4[nH]ccc34)c2)C(=O)N1 (centres unmarked)
pIC50: 6.32

molecule: O=C1CCC(c2cccc(NCc3cccc4ccccc34)c2)C(=O)N1 (centres unmarked)
pIC50: 5.85

Give the value of pIC50 reported for the following: COC(=O)C1CC2(CC(NC(=O)CCc3cccc(Nc4cccc(C5CCC(=O)NC5=O)c4)c3)C2)C1 (centres unmarked)
5.91

Give the value of pIC50 reported for the following: O=C1CCC(c2cccc(NS(=O)(=O)c3cccc(NCc4c[nH]c5ccc(Cl)cc45)c3)c2)C(=O)N1 (centres unmarked)
6.40

Give the value of pIC50 reported for the following: O=C1CCC(c2cc(NS(=O)(=O)c3ccc(Cl)cc3)ccc2F)C(=O)N1 (centres unmarked)
6.16

Give the value of pIC50 reported for the following: O=C1CCC(c2cccc(NC(=O)c3ccccc3F)c2)C(=O)N1 (centres unmarked)
5.99

Give the value of pIC50 reported for the following: O=C1CCC(c2cccc(NS(=O)(=O)c3cccc(NC(=O)c4ccc(CCCl)cc4)c3)c2)C(=O)N1 (centres unmarked)
6.11

* * *

biological target: UniProt:Q96SW2; assay: In vitro CRBN binding assay (AlphaScreen, competitive inhibition of the PROTAC assay)
assay.endpoint: pIC50
// pIC50 is dimensionless: -log10 of concentration (M)

compound: O=C1CCC(c2ccc3c(c2)CCNC3=O)C(=O)N1 (centres unmarked)
pIC50: 6.12

Give the value of pIC50 reported for the following: Cc1ccc(NC(=O)Nc2cccc(S(=O)(=O)Nc3cccc(C4CCC(=O)NC4=O)c3)c2)cc1Cl (centres unmarked)
6.49

* * *

tested on: MM.1S; assay: Tumor cell viability, CCK-8 assay, MM.1S; type: cell-based; details: MM.1S (human multiple myeloma); compound treatment 1uM; 5 days
Reported Cell viability (% of control) values for a set of compounds

compound: CCc1ccc(C(=O)Nc2cccc(S(=O)(=O)Nc3cccc(C4CCC(=O)NC4=O)c3)c2)cc1 (stereo not shown) [AEV41010]
target.or.system: MM.1S
Cell viability (% of control): 88.4 % of control

compound: O=C1CCC(c2cccc(NS(=O)(=O)c3cccc(NC(=O)c4ccc(CCCl)cc4)c3)c2)C(=O)N1 (stereo not shown) [AEV41003]
target.or.system: MM.1S
Cell viability (% of control): 92.1 % of control

compound: Cc1ccc(C(=O)Nc2cccc(S(=O)(=O)Nc3cccc(C4CCC(=O)NC4=O)c3)c2)cc1 (stereo not shown) [AEV41009]
target.or.system: MM.1S
Cell viability (% of control): 92.9 % of control

# next compound below
Give the value of Cell viability (% of control) reported for the following: CCCc1ccc(C(=O)Nc2cccc(S(=O)(=O)Nc3cccc(C4CCC(=O)NC4=O)c3)c2)cc1 (stereo not shown) [AEV41011]
56.9 % of control

* * *

target: cereblon (CRBN) (Homo sapiens); assay: In vitro CRBN binding assay (AlphaScreen, competitive inhibition of the PROTAC assay); details: Table 1; AlphaScreen, PROTAC Optimization Kit for BET Bromodomain-Cereblon Binding; read-out: Alpha IC50
Label Satisfied when IC50 is strictly below 1000 nM; otherwise label Not satisfied.

Is IC50 of Nc1nn(C(=O)CCc2cccc(Nc3cccc(C4CCC(=O)NC4=O)c3)c2)c2ccccc12 (stereo not shown) [AEV40202] strictly below 1000 nM?
Satisfied

Is IC50 of O=C1CCC(c2cccc(NC(=O)c3ccc(-c4ccccc4)cc3)c2)C(=O)N1 (stereo not shown) [AEV40161] strictly below 1000 nM?
Not satisfied

Is IC50 of O=C1CCC(c2cccc(NC(=O)Nc3ccc(Cl)cc3)c2)C(=O)N1 (stereo not shown) [AEV40131] strictly below 1000 nM?
Satisfied

Is IC50 of O=C1CCC(c2cccc(NC(=O)Nc3ccccc3)c2)C(=O)N1 (stereo not shown) [AEV40129] strictly below 1000 nM?
Satisfied

Is IC50 of O=C1CCC(c2cccc(NCc3cccc(C(F)F)c3)c2)C(=O)N1 (stereo not shown) [AEV40105] strictly below 1000 nM?
Not satisfied

Is IC50 of Nc1cccc(S(=O)(=O)Nc2cccc(C3CCC(=O)NC3=O)c2)c1 (stereo not shown) [AEV40073] strictly below 1000 nM?
Satisfied

Is IC50 of O=C1CCC(c2ccc3c(c2)C(=O)NCC3)C(=O)N1 (stereo not shown) [AEV40078] strictly below 1000 nM?
Not satisfied

Is IC50 of O=C1CCC(c2cccc(NC(=O)c3cccc(-c4ccccc4)c3)c2)C(=O)N1 (stereo not shown) [AEV40162] strictly below 1000 nM?
Not satisfied

Is IC50 of CN1Cc2cc(C3CCC(=O)NC3=O)ccc2C1=O (stereo not shown) [AEV40050] strictly below 1000 nM?
Not satisfied
